Biological target: ROCK2 (Homo sapiens, UniProt O75116)
Sequence (O75116 whole entry, species assumed): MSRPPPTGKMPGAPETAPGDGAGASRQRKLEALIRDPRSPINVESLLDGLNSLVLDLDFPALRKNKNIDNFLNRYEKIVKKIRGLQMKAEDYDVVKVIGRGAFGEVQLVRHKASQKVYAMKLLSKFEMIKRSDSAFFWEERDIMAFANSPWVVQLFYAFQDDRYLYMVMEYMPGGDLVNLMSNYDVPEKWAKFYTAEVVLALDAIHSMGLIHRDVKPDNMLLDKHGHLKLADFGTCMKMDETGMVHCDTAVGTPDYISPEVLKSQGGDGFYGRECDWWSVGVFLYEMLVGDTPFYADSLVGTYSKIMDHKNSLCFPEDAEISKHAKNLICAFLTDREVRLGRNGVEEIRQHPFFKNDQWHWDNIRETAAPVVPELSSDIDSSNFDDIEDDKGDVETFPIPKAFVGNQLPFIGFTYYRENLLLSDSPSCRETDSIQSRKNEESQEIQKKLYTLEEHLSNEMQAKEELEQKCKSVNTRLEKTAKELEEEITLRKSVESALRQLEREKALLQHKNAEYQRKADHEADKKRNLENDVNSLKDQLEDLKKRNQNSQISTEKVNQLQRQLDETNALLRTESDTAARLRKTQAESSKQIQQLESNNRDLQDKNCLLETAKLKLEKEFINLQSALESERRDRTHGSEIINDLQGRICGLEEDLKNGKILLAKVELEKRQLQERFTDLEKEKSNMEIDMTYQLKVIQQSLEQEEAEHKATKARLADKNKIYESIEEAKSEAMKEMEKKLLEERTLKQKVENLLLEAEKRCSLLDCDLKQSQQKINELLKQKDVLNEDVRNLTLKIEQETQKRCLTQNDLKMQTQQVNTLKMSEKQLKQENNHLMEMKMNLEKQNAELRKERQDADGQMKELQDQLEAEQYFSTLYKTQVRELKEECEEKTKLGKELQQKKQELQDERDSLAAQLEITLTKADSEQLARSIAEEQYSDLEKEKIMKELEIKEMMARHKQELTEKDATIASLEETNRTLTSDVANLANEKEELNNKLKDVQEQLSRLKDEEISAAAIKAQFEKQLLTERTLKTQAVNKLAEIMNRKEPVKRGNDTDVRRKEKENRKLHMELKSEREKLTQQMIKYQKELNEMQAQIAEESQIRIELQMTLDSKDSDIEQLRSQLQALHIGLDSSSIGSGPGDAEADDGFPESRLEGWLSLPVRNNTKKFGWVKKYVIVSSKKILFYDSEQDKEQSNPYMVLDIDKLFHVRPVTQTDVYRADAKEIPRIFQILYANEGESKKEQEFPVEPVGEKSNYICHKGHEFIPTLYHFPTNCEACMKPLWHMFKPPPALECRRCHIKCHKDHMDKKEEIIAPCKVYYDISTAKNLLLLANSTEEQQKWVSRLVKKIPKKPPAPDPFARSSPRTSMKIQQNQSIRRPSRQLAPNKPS
Experiment: ROCK Kinase Assay (Kinase-Glo luminescent)
Assay type: biochemical
property: Ki (nM)
Report the value in nM with no unit label.

q: Let me know recorded Ki for NCC(C(=O)Nc1ccc2cnccc2c1)c1ccc(CO)cc1 (stereo not shown) , thanks.
a: 0.7

* * *

Tested on: Porcine Trabecular Meshwork cells (PTM)
Experiment: PTM-HTM Assay: porcine trabecular meshwork cells, actin fibers
Format: cell-based
Conditions: Sus scrofa, phalloidin stain, actin fiber length, percent of control
Description: Porcine Trabecular Meshwork cells (PTM) were isolated from freshly obtained enucleated porcine eyes following a procedure by Rao et al.^1 Immortalized Human Trabecular Meshwork cells (TM-1) were obtained through a kind gift from Donna Peters in the Department of Ophthalmology and Visual Sciences at the University of Wisconsin. […] The actin fiber length and total area of focal adhesions were analyzed using custom algorithms developed in the INCell Developer Toolbox, v1.9.3. […]
property: IC50
# do not omit the unit; it follows the number

Some solved entries appear below for comparison.
NCC(C(=O)Nc1ccc2cnccc2c1)c1cccc(O)c1 (stereo not shown) [Compound 16] = 459 nM
NCC(C(=O)Nc1ccc2cnccc2c1)c1ccc(Cl)cc1 (stereo not shown) [Compound 11] = 129 nM
NCC(C(=O)Nc1ccc2cnccc2c1)c1cccc(CO)c1 (stereo not shown) [Compound 23] = 1380 nM
NCC(C(=O)Nc1ccc2cnccc2c1)c1cccc(C(F)(F)F)c1 (stereo not shown) [Compound 21] = 596 nM
NCC(C(=O)Nc1ccc2cnccc2c1)c1cccc(F)c1 (stereo not shown) [Compound 7] = 298 nM

q: Let me know recorded IC50 for NCC(C(=O)Nc1ccc2cnccc2c1)c1ccccc1F (stereo not shown) [Compound 6] , thanks.
a: 260 nM

q: Let me know recorded IC50 for NCC(C(=O)Nc1ccc2c(O)nccc2c1)c1ccccc1 (stereo not shown) [Compound 5] , thanks.
a: 45 nM

q: Let me know recorded IC50 for NCC(C(=O)Nc1ccc2cnccc2c1)c1ccc(C(F)(F)F)cc1 (stereo not shown) [Compound 22] , thanks.
a: 152 nM

q: Let me know recorded IC50 for Cc1ccccc1C(CN)C(=O)Nc1ccc2cnccc2c1 (stereo not shown) [Compound 13] , thanks.
a: 200 nM

q: Let me know recorded IC50 for Cc1ccc(C(CN)C(=O)Nc2ccc3cnccc3c2)cc1 (stereo not shown) [Compound 15] , thanks.
a: 84 nM
